Recorded values, source patent US9464082B2.

Test system: IFNγ-Induced NO Production
ASSAY OVERVIEW: Nitric Oxide Suppression Assay (Suppression of IFNγ-Induced NO Production)
Type: cell-based
CONDITION DESCRIPTION: RAW264.7; RAW 264.7 mouse macrophage cells; 2 hour pre-treatment with compound (3 μM to 0.3 nM, 10 point curve); 20 ng/mL interferon gamma, ~18 hour; Griess detection; n=2-3 in duplicates
Protocol: RAW 264.7, a mouse macrophage cell line, was obtained from American Type Culture Collection (Manassas Va.) and maintained in the log phase of growth in Dulbecco's Modified Eagle's Medium (DMEM), 10% heat inactivated fetal calf serum and 100 units/mL antibiotic-antimycotic (AA). Cells were cultured and maintained in a humidified incubator at 37° C. under 5% CO2 and 95% air. Cells were sub-cultured every 3 days by scraping and were not used beyond passage 20. […]
MEASURED PARAMETER: log10(IC50) (log10 of the value in µM)
Please note: log10 values; quantity IC50; unit µM.

The cases that follow already have their log10(IC50) on record.
C[C@@H]1C(=O)C(C#N)=C[C@]2(c3ccccc3)c3nc(-c4ccccc4)ncc3CC[C@@H]12 (racemic) [Example 7]    -1.52
C[C@@H]1C(=O)C(C#N)=C[C@]2(c3ccccc3)c3n[nH]c(-c4cccc(CCO)c4)c3CC[C@@H]12 [Example 116]    -2.03
COc1ccc([C@]23C=C(C#N)C(=O)[C@@H](C)[C@@H]2CCc2c(-c4cncn4C)nc(C)nc23)cc1 [Example 174]    -2.72
C[C@@H]1C(=O)C(C#N)=C[C@]2(c3ccccc3)c3nn(C)c(-c4cccc(-c5ccnnc5)c4)c3CC[C@@H]12 [Example 151]    -2.17
C[C@@H]1C(=O)C(C#N)=C[C@]2(c3ccccc3)c3nn(C(=O)CO)cc3CC[C@@H]12 [Example 42]    -1.47

Q: Can you look up the measured log10(IC50) of Cc1noc(-c2ccc(-c3ncc4c(n3)[C@@]3(c5ccccc5)C=C(C#N)C(=O)[C@@H](C)[C@@H]3CC4)cc2)n1 [Example 173] for me?
Ans: -1.71

Q: Can you look up the measured log10(IC50) of Cc1nc(-c2ccc(=O)n(C)c2)c2c(n1)[C@@]1(c3ccccc3)C=C(C#N)C(=O)[C@@H](C)[C@@H]1CC2 [Example 44] for me?
Ans: -1.29
